Source: patent US20230414702A1

assayedSystem: T1, CD47 receptor (UniProt Q08722 19-323, limits assumed)
T1 construct: whole, on cells; The assays used a whole MEC-1 cell membrane preparation, not purified CD47; also called membrane preparation from MEC-1 cells
T1 sequence (Q08722 19-323 limits assumed): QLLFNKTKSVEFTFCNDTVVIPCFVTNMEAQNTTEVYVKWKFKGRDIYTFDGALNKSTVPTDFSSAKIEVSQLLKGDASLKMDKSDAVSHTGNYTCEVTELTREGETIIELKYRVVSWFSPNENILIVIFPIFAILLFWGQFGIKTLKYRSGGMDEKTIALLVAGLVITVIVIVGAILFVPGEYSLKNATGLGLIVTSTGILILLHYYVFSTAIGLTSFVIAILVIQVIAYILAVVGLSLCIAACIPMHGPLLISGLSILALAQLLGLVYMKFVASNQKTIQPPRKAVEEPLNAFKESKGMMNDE
procedureText: column Kd(µM)PR; binding to MEC-1 membrane preparation, method not named in Table 4
Non-standard residues stand in square brackets, D forms with d. NMeR = CN[C@@H](CCCNC(=N)N)C(=O)O; Nle = CCCC[C@H](N)C(=O)O

>  <binder>
KRFYVVMWKK ((D)-Lys at positions 1 and 10; N-methyl pseudopeptide bond ψ(CONMe) between (D)Lys1 and Arg2) [PKT11, H-(D)K ψ(CONMe)R F Y V V M W K (D)K-OH]

>  <Kd / µM>
21.7

$$$$
>  <binder>
H-[dK][NMeR]FYVV[Nle]WK[dK]-OH [PKT16, H-(D)K ψ(CONMe)R F Y V V X W K (D)K-OH]

>  <Kd / µM>
12.1

$$$$
>  <binder>
KRFYVVMWKK ((D)-Lys at positions 1 and 10; N-methyl pseudopeptide bonds ψ(CONMe) between (D)Lys1 and Arg2 and between Trp8 and Lys9) [PKT15, H-(D)K ψ(CONMe)R F Y V V M W ψ(CONMe)K (D)K-OH]

>  <Kd / µM>
16

$$$$
>  <binder>
KRFYVVMWKK ((D)-Lys at position 1 and (D)-Lys at position 10, also called 4(PKHB1)) [PKHB1, H-(D)K R F Y V V M W K (D)K-OH]

>  <Kd / µM>
22.6

$$$$
>  <binder>
H-[dK][NMeR]FYVVLWK[dK]-OH (SMILES CC(C)C[C@H](NC(=O)[C@@H](NC(=O)[C@@H](NC(=O)[C@H](Cc1ccc(O)cc1)NC(=O)[C@H](Cc1ccccc1)NC(=O)[C@H](CCCNC(=N)N)N(C)C(=O)[C@H](N)CCCCN)C(C)C)C(C)C)C(=O)N[C@@H](Cc1c[nH]c2ccccc12)C(=O)N[C@@H](CCCCN)C(=O)N[C@H](CCCCN)C(=O)O) [PKT17, H-(D)K ψ(CONMe)R F Y V V L W K (D)K-OH]

>  <Kd / µM>
12

$$$$
